Target: β2^PIP-Core (AP2 core with β2 Lys5, Lys12, Lys26, Lys27, Lys29, Lys36 mutated to glutamate) (UniProt P63010 1-592; P84092 1-236; P84092 237-435; P62743 1-142, Lys5 to glutamate | Lys12 to glutamate | Lys26 to glutamate | Lys27 to …)
Sequence (P18484 other isoform, or with tags, fused parts or gaps with the stated changes, chain 1 of 4): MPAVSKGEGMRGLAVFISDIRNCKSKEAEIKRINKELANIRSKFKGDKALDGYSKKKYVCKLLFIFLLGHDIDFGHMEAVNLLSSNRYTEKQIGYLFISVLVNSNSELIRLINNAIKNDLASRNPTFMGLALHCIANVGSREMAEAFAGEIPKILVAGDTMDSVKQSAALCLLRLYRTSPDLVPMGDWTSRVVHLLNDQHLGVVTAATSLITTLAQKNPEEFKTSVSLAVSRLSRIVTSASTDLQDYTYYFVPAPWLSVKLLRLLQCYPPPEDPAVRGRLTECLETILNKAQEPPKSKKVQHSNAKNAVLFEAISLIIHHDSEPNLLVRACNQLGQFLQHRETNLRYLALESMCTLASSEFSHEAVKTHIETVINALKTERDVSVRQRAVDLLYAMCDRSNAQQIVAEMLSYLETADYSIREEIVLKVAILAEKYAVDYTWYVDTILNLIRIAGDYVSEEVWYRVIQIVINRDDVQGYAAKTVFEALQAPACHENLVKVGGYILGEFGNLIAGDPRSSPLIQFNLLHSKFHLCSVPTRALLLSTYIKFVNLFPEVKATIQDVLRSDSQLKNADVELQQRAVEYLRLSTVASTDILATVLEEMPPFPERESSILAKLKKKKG
Sequence (P63010 other isoform, or with tags, fused parts or gaps with the stated changes, chain 2 of 4): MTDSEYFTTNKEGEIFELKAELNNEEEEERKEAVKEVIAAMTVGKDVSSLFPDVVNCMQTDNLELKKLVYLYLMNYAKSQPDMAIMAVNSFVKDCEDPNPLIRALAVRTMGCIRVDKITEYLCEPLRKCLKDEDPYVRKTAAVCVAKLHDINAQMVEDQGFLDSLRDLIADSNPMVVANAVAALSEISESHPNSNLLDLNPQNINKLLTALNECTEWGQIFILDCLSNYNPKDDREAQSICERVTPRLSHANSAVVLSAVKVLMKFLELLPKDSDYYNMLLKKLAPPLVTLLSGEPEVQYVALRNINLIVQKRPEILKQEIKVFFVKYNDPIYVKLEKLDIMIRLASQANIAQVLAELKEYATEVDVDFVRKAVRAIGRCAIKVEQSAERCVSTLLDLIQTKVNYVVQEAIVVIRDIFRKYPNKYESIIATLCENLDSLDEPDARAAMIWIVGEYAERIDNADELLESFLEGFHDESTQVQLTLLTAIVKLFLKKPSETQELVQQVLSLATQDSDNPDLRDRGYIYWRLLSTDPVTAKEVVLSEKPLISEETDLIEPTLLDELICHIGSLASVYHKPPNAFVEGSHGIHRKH
Sequence (Q96CW1 other isoform, or with tags, fused parts or gaps with the stated changes, chain 3 of 4, further chain): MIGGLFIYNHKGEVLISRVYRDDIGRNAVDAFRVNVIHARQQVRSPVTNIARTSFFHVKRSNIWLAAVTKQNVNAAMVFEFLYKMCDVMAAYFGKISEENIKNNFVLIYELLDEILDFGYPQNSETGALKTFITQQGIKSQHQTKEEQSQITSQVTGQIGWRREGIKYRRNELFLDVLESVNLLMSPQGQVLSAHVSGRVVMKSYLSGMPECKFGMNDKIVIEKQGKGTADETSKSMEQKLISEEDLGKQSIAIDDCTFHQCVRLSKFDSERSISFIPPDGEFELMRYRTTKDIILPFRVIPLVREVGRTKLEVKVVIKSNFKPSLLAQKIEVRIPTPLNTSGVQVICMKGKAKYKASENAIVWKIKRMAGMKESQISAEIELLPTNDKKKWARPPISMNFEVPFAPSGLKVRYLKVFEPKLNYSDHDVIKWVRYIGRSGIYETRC
Sequence (B2R4Z4 whole entry, stated change not applied, chain 4 of 4, further chain): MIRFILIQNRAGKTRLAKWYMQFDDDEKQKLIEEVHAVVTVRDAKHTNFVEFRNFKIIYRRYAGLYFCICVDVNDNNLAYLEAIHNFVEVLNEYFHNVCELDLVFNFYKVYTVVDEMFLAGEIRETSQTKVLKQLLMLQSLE
Experiment: SPR; liposomes with 10% PtdIns4,5P2 + 1% TGN38
pKd: −log10 of the molar value. Where no end group is shown, it is not given here. The star is where a group is joined. MPB‑DPPE = 1,2-dipalmitoyl-sn-glycero-3-phosphoethanolamine-N-[4-(p-maleimidophenyl)butyramide], CCCCCCCCCCCCCCCC(=O)OC[C@H](COP(=O)(O)OCCNC(=O)CCCc1ccc(N2C(=O)CC(*)C2=O)cc1)OC(=O)CCCCCCCCCCCCCCC
assay readout: pKd

[[record]]
binder = "C(MPB‑DPPE)KVTRRPKASDYQRL [lipid-linked TGN38 sorting motif peptide (CKVTRRPKASDYQRL) displayed in liposomes]"
assay_readout = "pKd"
readout_number = 4.70

